Target: human CD33 T42K (human, UniProt P20138 18-364)
Sequence (P20138 18-364 T42K limits assumed): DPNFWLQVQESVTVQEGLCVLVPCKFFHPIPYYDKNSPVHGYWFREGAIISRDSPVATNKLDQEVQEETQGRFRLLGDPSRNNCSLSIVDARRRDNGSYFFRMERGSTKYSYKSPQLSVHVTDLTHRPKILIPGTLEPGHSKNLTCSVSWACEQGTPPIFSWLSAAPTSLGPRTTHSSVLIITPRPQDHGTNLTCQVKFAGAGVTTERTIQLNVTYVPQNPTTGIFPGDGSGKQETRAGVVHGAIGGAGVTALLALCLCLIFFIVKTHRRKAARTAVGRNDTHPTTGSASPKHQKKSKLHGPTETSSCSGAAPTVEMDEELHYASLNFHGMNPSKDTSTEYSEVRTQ
Assay: flow cytometry, mutant on cells, IgG
measured_quantity: Mean % WT Binding (% WT binding)
Report only the number, with the unit % WT binding understood.

Prompt: Requested field: Mean % WT Binding. Item: Refmab #4 (antibody, human IgG1, V domains shown, Tested in IgG format; human IgG1 Fc silent (PG-LALA)) VH: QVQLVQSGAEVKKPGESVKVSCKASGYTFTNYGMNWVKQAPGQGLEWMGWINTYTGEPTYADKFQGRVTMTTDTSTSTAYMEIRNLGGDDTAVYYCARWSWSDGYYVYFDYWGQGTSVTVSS VL: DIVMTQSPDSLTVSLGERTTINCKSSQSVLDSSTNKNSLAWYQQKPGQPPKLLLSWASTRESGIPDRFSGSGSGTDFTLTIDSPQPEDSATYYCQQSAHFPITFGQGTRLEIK
Completion: 86
